Tested on: E. coli NCTC 13352
Protocol details: MIC, agar dilution (MHA), compound alone
Type: cell-based
Experimental context: Escherichia coli, NCTC13352; E. coli NCTC 13352; compound alone; MHA, 35° C., 18 hours; read-out: MIC
Description: The biological activity of representative compounds according to the invention against various bacterial strains was investigated. […]
Measurement kind: MIC (µg/mL)

Before answering, review these 5 worked examples.
O=C(NOCCn1cncn1)[C@@H]1CC[C@@H]2CN1C(=O)N2OS(=O)(=O)O    16
O=C(NOCCn1cnnn1)[C@@H]1CC[C@@H]2CN1C(=O)N2OS(=O)(=O)[O-].[Na+]    8
O=C(NOCCn1ncnn1)[C@@H]1CC[C@@H]2CN1C(=O)N2OS(=O)(=O)[O-].[Na+]    8
O=C(Cn1ccnn1)NNC(=O)[C@@H]1CC[C@@H]2CN1C(=O)N2OS(=O)(=O)[O-].[Na+]    0.5
C[C@@H](C(=O)NNC(=O)[C@@H]1CC[C@@H]2CN1C(=O)N2OS(=O)(=O)[O-])n1ccnc1.[Na+]    0.5

[A] NCCCCc1nnnn1CC(=O)NNC(=O)[C@@H]1CC[C@@H]2CN1C(=O)N2OS(=O)(=O)O
[B] O=C(NOCCn1ccnn1)[C@@H]1CC[C@@H]2CN1C(=O)N2OS(=O)(=O)O
[C] CCOC(=O)c1nccn1CC(=O)NNC(=O)[C@@H]1CC[C@@H]2CN1C(=O)N2OS(=O)(=O)[O-].[Na+]
Task field, ranking: reported MIC, descending order. # format: label list in the order the request specifies
B, C, A
(B: 8 µg/mL, C: 2 µg/mL, A: 1 µg/mL)

[P] NC(=O)c1nnn(CC(=O)NNC(=O)[C@@H]2CC[C@@H]3CN2C(=O)N3OS(=O)(=O)[O-])n1.[Na+]
[Q] O=C(Cn1ccnc1CCO)NNC(=O)[C@@H]1CC[C@@H]2CN1C(=O)N2OS(=O)(=O)[O-].[Na+]
Between P and Q , which one has the lower reported MIC value? Returns: label corresponding to the selected item.
P
(P: 1 µg/mL, Q: 2 µg/mL)

###

System: E. coli NCTC 13352
Protocol details: MIC, agar dilution (MHA), compound alone
Type: cell-based
Experimental context: Escherichia coli, NCTC13352; E. coli NCTC 13352; compound alone; MHA, 35° C., 18 hours; read-out: MIC
Measurement kind: MIC (µg/mL)

C[C@H](N)C(=O)OCc1nccn1CC(=O)NNC(=O)[C@@H]1CC[C@@H]2CN1C(=O)N2OS(=O)(=O)O [Example 35]    1
NCCCCc1nnn(CC(=O)NNC(=O)[C@@H]2CC[C@@H]3CN2C(=O)N3OS(=O)(=O)O)n1 [Example 32]    0.5
O=C(Cn1cccc1)NNC(=O)[C@@H]1CC[C@@H]2CN1C(=O)N2OS(=O)(=O)[O-].[Na+] [Example 18]    0.5
NC(=O)c1nnnn1CC(=O)NNC(=O)[C@@H]1CC[C@@H]2CN1C(=O)N2OS(=O)(=O)[O-].[Na+] [Example 17]    0.25

[A] NCc1nnn(CC(=O)NNC(=O)[C@@H]2CC[C@@H]3CN2C(=O)N3OS(=O)(=O)O)n1 [Example 26]
[B] O=C(Cn1ccnc1CO)NNC(=O)[C@@H]1CC[C@@H]2CN1C(=O)N2OS(=O)(=O)[O-].[Na+] [Example 42]
[C] O=C(NOCCn1nnc(CCO)n1)[C@@H]1CC[C@@H]2CN1C(=O)N2OS(=O)(=O)[O-].[Na+] [Example 55]
[D] Cc1nnnn1CCONC(=O)[C@@H]1CC[C@@H]2CN1C(=O)N2OS(=O)(=O)[O-].[Na+] [Example 53]
Put the compounds in ascending order of MIC. I would appreciate it if you listed the labels in the requested order.
A, B, D, C

Just for reference, patent US20180282331A1 is where these values come from.
